FYI, the data here is from ChEMBL document CHEMBL3885881.

Species: Rattus norvegicus
Assay: DrugMatrix - Regimen: Daily Repeat
Type: toxicity, organism-based, Sprague-Dawley
Parameters: regimen Daily Repeat, gender Male, age 6-8 weeks
Conditions: in vivo, po, 0 mg/kg, 72 h, tissue Plasma, route oral GAVAGE, dose level Control, time 3 day, […]
Listed here are compounds together with their documented BLOOD UREA NITROGEN.
// units = mg/dL; emit number, no label

Sample records with BLOOD UREA NITROGEN:
compound: COc1ccc2c(c1)c(CC(=O)OCC(=O)O)c(C)n2C(=O)c1ccc(Cl)cc1 [ACEMETACIN]
test-readout: BLOOD UREA NITROGEN
endpoint-value: 16.33

compound: Oc1c(Cl)cc(Cl)cc1Sc1cc(Cl)cc(Cl)c1O [BITHIONOL]
test-readout: BLOOD UREA NITROGEN
endpoint-value: 12.33

compound: COC1=CC(=O)C[C@@H](C)[C@]12Oc1c(Cl)c(OC)cc(OC)c1C2=O [GRISEOFULVIN]
test-readout: BLOOD UREA NITROGEN
endpoint-value: 15.83

compound: CCCC[C@@H](CC)COC(=O)c1ccccc1C(=O)OC[C@@H](CC)CCCC [BIS(2-ETHYLHEXYL)PHTHALATE]
test-readout: BLOOD UREA NITROGEN
endpoint-value: 14

compound: Cn1cnc([N+](=O)[O-])c1Sc1ncnc2nc[nH]c12 [AZATHIOPRINE]
test-readout: BLOOD UREA NITROGEN
endpoint-value: 13.33

Next:
Ask: State the recorded BLOOD UREA NITROGEN for this entry: COCc1c(C(C)C)nc(C(C)C)c(/C=C/[C@@H](O)C[C@@H](O)CC(=O)O)c1-c1ccc(F)cc1 [CERIVASTATIN]
Reply: 13.17
